Measured values drawn from ChEMBL document CHEMBL3351773 for this set.

target: Tyrosinase (Agaricus bisporus, UniProt O42713); assay: Inhibition of mushroom tyrosinase using L-DOPA as substrate by spectrophotometry relative to control
Sequence (O42713 whole entry): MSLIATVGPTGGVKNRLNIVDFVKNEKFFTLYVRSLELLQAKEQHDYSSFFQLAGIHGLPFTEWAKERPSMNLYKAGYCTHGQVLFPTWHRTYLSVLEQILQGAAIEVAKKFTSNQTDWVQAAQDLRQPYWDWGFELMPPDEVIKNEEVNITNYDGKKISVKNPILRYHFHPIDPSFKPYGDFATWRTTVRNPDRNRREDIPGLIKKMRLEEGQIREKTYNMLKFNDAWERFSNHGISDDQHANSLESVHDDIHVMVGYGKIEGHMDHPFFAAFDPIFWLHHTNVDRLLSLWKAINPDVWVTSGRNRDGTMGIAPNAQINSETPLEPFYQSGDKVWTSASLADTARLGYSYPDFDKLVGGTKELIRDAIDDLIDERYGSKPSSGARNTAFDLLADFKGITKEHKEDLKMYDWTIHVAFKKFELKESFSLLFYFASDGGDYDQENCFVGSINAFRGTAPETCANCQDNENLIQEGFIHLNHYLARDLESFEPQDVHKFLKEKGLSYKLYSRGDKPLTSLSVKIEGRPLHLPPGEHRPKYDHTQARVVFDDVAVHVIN
endpoint.name: IC50 (µM)
Write the answer as a number in µM, unit excluded.

Note to self: IC50 recorded for `CCCCCCCCCCNc1ccc(O)cc1` was 30.1

###

target: Tyrosinase (Agaricus bisporus); experiment: Inhibition of mushroom tyrosinase using L-tyrosine as substrate by spectrophotometry
endpoint.name: pIC50
Remember the convention: pIC50 equals -log10 of concentration in molar.

Note to self: pIC50 recorded for `CCCCCCCCCCNc1ccc(O)cc1` was 5.24
